Numbers sourced from ChEMBL document CHEMBL3045872.

Experiment summary: Fraction unbound in Rattus norvegicus Sprague-Dawley (rat) at 2 mg/kg, iv
Assay type: ADME, organism-based
Design: dose 2 mg/kg, route intravenous
Condition parameters: in vivo
Reported property: Fu (%)

Compound: COc1cc(C)ccc1S(=O)(=O)NC(=O)C(c1ccc2c(c1)OCO2)c1cn(C)c2cc(C(=O)O)ccc12 (racemic)
Meas value: 0.01
--
Compound: COc1cc(C)ccc1S(=O)(=O)NC(=O)C(c1ccc2c(c1)OCO2)c1cn(C)c2cc(CO)ccc12 (configuration not stated)
Meas value: 0.01
--
Compound: COc1cc(C)ccc1S(=O)(=O)NC(=O)C(c1ccc2c(c1)OCO2)c1cn(C)c2cc(F)ccc12 (racemic)
Meas value: 0.005
--
Compound: COc1cc(C)ccc1S(=O)(=O)NC(=O)C(c1ccc2c(c1)OCO2)c1cn(C)c2cc(C#N)ccc12 (racemic)
Meas value: 0.002
--
Compound: COc1cc(C)ccc1S(=O)(=O)NC(=O)C(c1ccc2c(c1)OCO2)c1cn(C)c2cc(C(N)=O)ccc12 (racemic)
Meas value: 0.007
--
Compound: COc1cc(C)ccc1S(=O)(=O)NC(=O)C(c1ccc2c(c1)OCO2)c1cn(C)c2cc(C(C)=O)ccc12 (racemic)
Meas value: 0.002
--
Compound: Cn1cc(C(C(=O)NS(=O)(=O)c2ccc(CC(=O)O)cc2)c2ccc3c(c2)OCO3)c2ccc(C(N)=O)cc21 (racemic)
Meas value: 0.048
